Biological target: rat MCH1 receptor (Rattus norvegicus)
Construct: expressed in transfected cells; host or cells: Human embryonic kidney Peak rapid 293 cells (Peakr293), transient, calcium phosphate; membranes
Test: Radioligand binding assay at cloned rat MCH1 receptor ([3H]Compound A displacement)
Details: KI, cloned rat MCH1, membranes of transfected Peakr293 cells, 0.08 nM [3H]Compound A, 25° C., 90 minutes
Procedure: For binding assays, pellets of transfected cells are suspended in ice-cold buffer (20 mM Tris.HCl, 5 mM EDTA, pH 7.4) and homogenized by sonication for 7 sec. The cell lysates are centrifuged at 200×g for 5 min at 4° C. The supernatants are then centrifuged at 40,000×g for 20 min at 4° C. […] Protein concentrations are determined by the method of Bradford (1976) using bovine serum albumin as the standard. […]
As shown below, each of these compounds has a reported Ki value.
For clarity, give the value followed by its unit.

[[record]]
compound = "CC(C(=O)NCCCN1CCC2(CC1)OCc1ccccc12)c1ccc(F)cc1 (stereo not shown)"
assay_metric = "Ki"
endpoint_result = "679 nM"

[[record]]
compound = "O=C(NCCN1CCC2(CCc3ccccc32)CC1)c1cccc2ccccc12"
assay_metric = "Ki"
endpoint_result = "545 nM"

[[record]]
compound = "O=C1OC2(CCN(CCCNC(=O)C(c3ccc(Cl)cc3)c3ccc(Cl)cc3)CC2)c2ccccc21"
assay_metric = "Ki"
endpoint_result = "600 nM"


Lab note: next compound to report on.
Query string: Can you share its Ki? I mean this compound: Cc1ccc(C(C(=O)NCCCN2CCC3(CCc4ccccc43)CC2)c2ccc(C)cc2)cc1
Result string: 29.7 nM

* * *

Each item that follows carries a reported pKi.
biological target: rat MCH1 receptor (Rattus norvegicus); construct: expressed in transfected cells; host or cells: Human embryonic kidney Peak rapid 293 cells (Peakr293), transient, calcium phosphate; membranes; test: Radioligand binding assay at cloned rat MCH1 receptor ([3H]Compound A displacement); conditions: cloned rat MCH1, membranes of transfected Peakr293 cells, 0.08 nM [3H]Compound A, 25° C., 90 minutes; read-out: KI
# pKi: negative log10 of molar concentration; output just the value

Examples with their reported pKi follow.
[[record]]
compound = "O=C(NCCCCCN1CCC2(C=Cc3ccccc32)CC1)c1sc2ccccc2c1Cl [Example 36]"
assay_metric = "pKi"
endpoint_result = 6.13

[[record]]
compound = "O=C(NCCCN1CCC2(C=Cc3ccccc32)CC1)C1(c2ccc(Cl)cc2)CCC1 [Example 74]"
assay_metric = "pKi"
endpoint_result = 6.73

[[record]]
compound = "O=C(NCCCCN1CCC2(CCc3ccccc32)CC1)c1cc(Cl)cc(Cl)c1 [Example 7]"
assay_metric = "pKi"
endpoint_result = 6.57

[[record]]
compound = "O=C(NCCCN1CCC2(CC1)Cc1ccccc1C2=O)C(c1ccc(F)cc1)c1ccc(F)cc1 [Example 92]"
assay_metric = "pKi"
endpoint_result = 7.21

[[record]]
compound = "Cc1onc(-c2ccccc2Cl)c1C(=O)NCCCCN1CCC2(CCc3ccccc32)CC1 [Example 35]"
assay_metric = "pKi"
endpoint_result = 6.08

[[record]]
compound = "O=C(NCCCCCCN1CCC2(CCc3ccccc32)CC1)c1ccc(-c2ccccc2)cc1 [Example 29]"
assay_metric = "pKi"
endpoint_result = 6.37


Kindly consider the entry below.
Query string: For O=C(NCCCN1CCC2(CCc3ccccc32)CC1)C1(c2ccc(Cl)cc2)CC1 [Example 58] , what is its reported pKi?
Result string: 6.82

* * *

Target: rat MCH1 receptor (Rattus norvegicus)
Construct: expressed in transfected cells; host or cells: Human embryonic kidney Peak rapid 293 cells (Peakr293), transient, calcium phosphate; membranes
Assay: Radioligand binding assay at cloned rat MCH1 receptor ([3H]Compound A displacement)
Settings: cloned rat MCH1, membranes of transfected Peakr293 cells, 0.08 nM [3H]Compound A, 25° C., 90 minutes; read-out: KI
Protocol: For binding assays, pellets of transfected cells are suspended in ice-cold buffer (20 mM Tris.HCl, 5 mM EDTA, pH 7.4) and homogenized by sonication for 7 sec. The cell lysates are centrifuged at 200×g for 5 min at 4° C. The supernatants are then centrifuged at 40,000×g for 20 min at 4° C. […] Protein concentrations are determined by the method of Bradford (1976) using bovine serum albumin as the standard. […]
Checkbox rule: Ki lower than 100 nM = 1 (yes); Ki not lower than 100 nM = 0 (no).

Known results for compounds:
[[record]]
compound = "O=C(NCCCCCN1CCC2(CCc3ccccc32)CC1)c1cccnc1Oc1ccc(Cl)cc1 [Example 31]"
group = "0 (no)"

[[record]]
compound = "O=C(NCCN1CCC2(CCc3ccccc32)CC1)c1ccc(F)c(F)c1 [Example 45]"
group = "0 (no)"


Query string: Is Ki of O=C(NCCCN1CCC2(CCCc3ccccc32)CC1)C(c1ccccc1)c1ccccc1 [Example 39] strictly below 100 nM?
Result string: 0 (no)

Query string: Threshold test, Ki < 100 nM: CC(C(=O)NCCCN1CCC2(CC1)OCc1ccccc12)c1ccc(Cl)cc1 (centres unmarked) [Example 83]
Result string: 0 (no)

Query string: Consider O=C(NCCCN1CCC2(CC1)OCc1ccc(F)cc12)C(c1ccccc1)c1ccccc1 [Example 101] . Does its Ki lie strictly below 100 nM?
Result string: 1 (yes)

Query string: Does the reported Ki of O=C(NCCCCN1CCC2(CCc3ccccc32)CC1)C(c1ccccc1)c1ccccc1 [Example 4] stay below 100 nM?
Result string: 0 (no)

Query string: Does O=C(NCCCCN1CCC2(CCc3ccccc32)CC1)c1ccc(F)c(F)c1 [Example 60] have Ki strictly under 100 nM?
Result string: 1 (yes)

Query string: Determine whether this compound shows Ki lower than 100 nM (ties excluded): O=C(NCCCN1CCC2(CC1)Cc1ccccc1C2=O)C(c1ccc(Cl)cc1)c1ccc(Cl)cc1 [Example 91]
Result string: 0 (no)

* * *

molecular target: rat MCH1 receptor (Rattus norvegicus, UniProt P97639); construct: expressed in transfected cells; host or cells: Human embryonic kidney Peak rapid 293 cells (Peakr293), transient, calcium phosphate; membranes; assay: Radioligand binding assay at cloned rat MCH1 receptor ([3H]Compound A displacement); conditions: cloned rat MCH1, membranes of transfected Peakr293 cells, 0.08 nM [3H]Compound A, 25° C., 90 minutes; read-out: KI
Sequence (P97639 whole entry): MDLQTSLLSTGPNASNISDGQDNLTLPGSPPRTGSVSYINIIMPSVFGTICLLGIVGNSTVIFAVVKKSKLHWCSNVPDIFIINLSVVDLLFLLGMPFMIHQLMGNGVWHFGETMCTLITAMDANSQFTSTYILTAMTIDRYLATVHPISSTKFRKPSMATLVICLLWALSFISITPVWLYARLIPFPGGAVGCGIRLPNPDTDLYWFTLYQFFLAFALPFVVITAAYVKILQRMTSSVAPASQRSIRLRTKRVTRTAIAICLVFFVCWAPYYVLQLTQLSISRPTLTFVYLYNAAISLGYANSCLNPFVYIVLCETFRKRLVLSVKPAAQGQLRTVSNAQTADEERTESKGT
Collected pKi values appear next to each entry.
The quantity pKi is defined as the negative base-10 logarithm of the molar concentration.

[[record]]
compound = "O=C(NCCCN1CCC2(CCc3ccccc32)CC1)C(c1ccc(F)cc1)c1ccc(F)cc1 [Example 57]"
endpoint_result = 8.38

[[record]]
compound = "O=C(NCCCN1CCC2(CCc3ccccc32)CC1)c1cc(Cl)cc(Cl)c1 [Example 8]"
endpoint_result = 6.04

[[record]]
compound = "O=C(NCCCN1CCC2(C=Cc3ccccc32)CC1)C1(c2ccc(Cl)cc2)CCCC1 [Example 69]"
endpoint_result = 6.98

[[record]]
compound = "O=C(NCCCN1CCC2(CCc3ccccc32)CC1)C1(c2ccc(Cl)cc2)CCCCC1 [Example 53]"
endpoint_result = 7.24

[[record]]
compound = "CC(C)c1ccc2c(c1)COC21CCN(CCCNC(=O)C(c2ccccc2)c2ccccc2)CC1 [Example 102]"
endpoint_result = 6.79

[[record]]
compound = "CC(C)(C(=O)NCCCN1CCC2(CC1)OCc1ccccc12)c1ccc(Cl)cc1 [Example 81]"
endpoint_result = 6.73


Query string: Notebook: pull reported pKi for rat MCH1 receptor (Rattus norvegicus, UniProt P97639), entry CC(C(=O)NCCCN1CCC2(CCc3ccccc32)CC1)(c1ccccc1)c1ccccc1 [Example 47]
Result string: 6.81

Query string: Hi! What's the reported pKi for O=C(NCCCN1CCC2(CC1)OCc1ccccc12)C1(c2ccc(Cl)cc2)CCCC1 [Example 85] on rat MCH1 receptor (Rattus norvegicus, UniProt P97639)?
Result string: 6.74

* * *

Quick list: pKi per entry.
biological target: rat MCH1 receptor (Rattus norvegicus, UniProt P97639); construct: expressed in transfected cells; host or cells: Human embryonic kidney Peak rapid 293 cells (Peakr293), transient, calcium phosphate; membranes; experiment: Radioligand binding assay at cloned rat MCH1 receptor ([3H]Compound A displacement); conditions: KI, cloned rat MCH1, membranes of transfected Peakr293 cells, 0.08 nM [3H]Compound A, 25° C., 90 minutes
The quantity pKi is defined as the negative base-10 logarithm of the molar concentration.

[[record]]
compound = "O=C(NCCCCCCN1CCC2(CCc3ccccc32)CC1)c1ccc(Oc2cc(Cl)cc(Cl)c2)o1 [Example 16]"
target_or_system = "rat MCH1 receptor (Rattus norvegicus, UniProt P97639)"
endpoint_result = 6.35

[[record]]
compound = "CCCc1nn(-c2ccc(Cl)cc2)cc1C(=O)NCCCCCCN1CCC2(CCc3ccccc32)CC1 [Example 10]"
target_or_system = "rat MCH1 receptor (Rattus norvegicus, UniProt P97639)"
endpoint_result = 6.12

[[record]]
compound = "O=C(NCCCN1CCC2(CC1)OCc1ccccc12)C1(c2ccc(Cl)cc2)CCC1 [Example 87]"
target_or_system = "rat MCH1 receptor (Rattus norvegicus, UniProt P97639)"
endpoint_result = 6.38


Query string: Look up pKi: CC(C(=O)NCCCN1CCC2(C=Cc3ccccc32)CC1)(c1ccccc1)c1ccccc1 [Example 63]
Result string: 7.34
